- target-or-test-system: T1, SARS-CoV-2 receptor-binding domain (WT RBD; S protein residues 319-539) (SARS-CoV-2, UniProt P0DTC2 319-539)
- T1 construct: also called SARS-COV-2 RBD
- procedure-details: BLI (Octet Red), IgG on protein A biosensor, WT RBD in solution, 1:1 fit
quantity: log10(Kd) (log10 of the value in nM)
Could you please treat all values as log10 of Kd in nM?

binder	quantity	numeric-readout
C841 (antibody, V domains shown) VH: EVQLVESGGGLVQPGGSLRLSCAASGFTFSIFSMNWVRQAPGKGLEWISYISSSSGSRHYADSVKGRFTISRDNAKNSLYLQMNNLRDEDTAMYYCAREAHDGALTGYGDYLNWFDPWGQGVLVTVSS VL: SYELTQPPSVSVAPGKTARIPCGGDSVGSKSVHWYQQKSGQAPVLVIHSDSDRPSGIPERFSGSNSGNTATLTITGVAAGDEADYYCHVWDTIGDRFYWVFGGGTKLTVL	log10(Kd)	0.21
C960 (antibody, V domains shown) VH: QVQLVESGGGVVQPGRSLTLSCTASGFTFNRFAMFWVRQAPGKGLEWVAVISFDGSYEHYAESVKGRFAIFRDNPKNTLYLQMNSLRAEDTAVYYCAKSPINYCANGVCYPDSWGQGTLVTVSS VL: NFMLTQPHSVSESPGKTVTISCTGSSGSIANNYVQWYQQRPGSAPTTVIFEDTQRPSGVPDRFSGSIDSSSNSASLNISGLKPEDEADYYCQSFDVNSRWVFGGGTKLTVL	log10(Kd)	0.82
C889 (antibody, V domains shown) VH: EVQLVESGGGLVQPGGSLRLSCAVSGFTVSSNYMTWVRQAPGKGLEWVSLIYSGTSAFYADSVKGRFTISRDNSKNTLYLQMSSLRVNDTAIYYCARDLRKDDGYSYGAFDYWGQGTLVTVSS VL: QSALTQPASVSGSPGQSITISCSGTSSDVGAHNYVSWYQQYPGKAPKLMIFDVTDRPSGVSNRFSGSKSGNTASLTISGLQAEDEADYYCTSYTTNRSWVFGGGTKVTVL	log10(Kd)	0.62
C1003 (antibody, V domains shown) VH: QVQLVESGGGVVQPGRSLRLSCAASGFAFSSYGMNWVRQAPGKGLEWVTTVSSDGNVNYYIDSVKGRFTISRDNSKNTLYLQMNSLRGDDTAVYYCAKGPRFGWSYRGGSGFDIWGQGTMVTVSS VL: DIQMTQSPSSLSASVGDRVTITCQASQDISNYLNWYQQKPGKAPKLLIYDASNLETGVPSRFSGSGSGTDFTFTITSLQPEDIATYYCQQYDNLPITFGQGTRLEIK	log10(Kd)	1.96
C936 (antibody, V domains shown) VH: EVQLVESGGGLIQPGGSLRLSCAASGFTVSSNYMSWVRQAPGKGLEWVSVIYSGGSTFYADSVKGRFTISRDNSKNTLYLQMNSLRAEDTAVYYCARDLGTGLFDYWGQGTLVTVSS VL: DIQLTQSPSFLSASVGDRVTITCRASQGISSYLAWYQQKPGKAPKLLIYAASTLQSGVPSRFSGSGSGTEFTLTISSLQPEDFATYYCQQLDSYPPGTFGPGTKVDIK	log10(Kd)	2.82
C881 (antibody, V domains shown) VH: EVQLVESGGGLIQPGGSLRLSCAVSGVAVSTNYMSWVRQAPGQGLEWVSTIYSGDTTYYSDSVKGRFTISRDNSKNTFYLQMNSLRVPDTAVYYCARLGGVFNGFNGSFDYWGQGTLVTVS VL: QSALTQPASVSGSPGQSITISCIGTSSDFENYNLVSWYQQHPGKAPKVMIYEDTKRPSGVSNRFSGSKSANTASLTISGLQAEDEAEYYCCSYAGASTWVFGGGTRVTVV	log10(Kd)	0.72
C929 (antibody, V domains shown) VH: EVQLVESGGGLIQPGGSLRLSCAASGFTVSSNYMTWVRQAPGKGLEWVSVIYSGGTTYYADSVKGRFTISRDNSKNTLYLQMNSLRAEDTAVYYCARDLVVWGMDVWGQGTTVTVSS VL: DIQLTQSPSFLSASVGDRVTITCRASQGISSYLAWYQQKPGKAPKLLIYAASTLQSGVPSRFSGSGSGTEFTLTISSLQPEDFATYYCQLLNSYPYTFGQGTKLEIK	log10(Kd)	-0.90
C1009 (antibody, V domains shown) VH: EVQLVESGGGLLQPGGSLRLSCAASGFSVSSNYMTWVRQAPGKGLEWVAAIYSGDSTYYVDSVKGRFIISRDNSKNTVYLHLSSLRAEDTAVYYCARLVGYDFRSGSDGGYFDYWGHGTLVTVSS VL: QSALTQPASVSGSPGQSITISCTGTSSDIGNYNLVSWYQQHPGKAPKLMIYDVSKRPSGVSNRFSGSKSGNTASLTISGLQAEDETDYYCCSYAGSSTWVFGGGTKLTVL	log10(Kd)	0.33

Provide reported log10(Kd) for each item, in the same order as listed.
1. C1010 (antibody, V domains shown) VH: QVQLVESGGGVVQPGRSLRLSCAASGFTFSSYAMHWVRQAPGKGLEWVAVISYDGSNKYYADSVKGRFTISRDNSKNTLYLQMNSLRAEDTAVYYCAKKGQPYCGGDCYFYYFDYWGQGTLVTVSS VL: DIQMTQSPSSLSASLGDRVTITCQASQDISNYLNWYQQKPGKAPKLLIYDASNLETGVPSRFSGSGSGTDFTFTISSLQPEDIATYYCQQYDNLPPITFGQGTRLEIK
2. C1008 (antibody, V domains shown) VH: EVQLVESGGGLIQPGGSLRLSCAASGFTVSSNYMSWVRQAPGKGLEWVSVIYSGGSTYYADSVKGRFTISRDNSKNTLYLQMNSLRAEDTAVYYCARVVGYDFWSGYDGGYFDYWGQGTLVTVSS VL: QSALTQPASVSGSPGQSITISCTGTSSDVGSYNLVSWYQQHPGKAPKLMIYEVSKRPSGVSNRFSGSKSGNTASLTISGLQAEDEADYYCCSYAGSSTWVFGGGTKLTVL

Output:
1. 1.80
2. 2.70
